Assay: Restrictive medium S. cerevisiae growth inhibition, OD615, pilot screen of yeast lifespan reduction project, restrictive growth control (AID 706);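 also: modified DeaD lifespan yeast strain shifted to restrictive glucose medium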
Conditions: OD615, 48 h, at 10 µM, active compounds read high
For each record, write down the corresponding growth inhibition.
Answers are plain numbers, in %.

Reference set (5 entries):
• C=CCc1cc(/C=N/n2cnnc2)cc(OCC)c1O = -1.86
• O=C(COC(=O)C1CCCO1)Nc1cccc(C(F)(F)F)c1 (centres undefined) = -15.9
• CC(=O)Nc1ccc(S(=O)(=O)N2CCN(c3cccc(C)c3C)CC2)cc1 = -3.89
• CCn1cc(C(=O)NCCCOC)c2cc(OC)c(OC)cc2c1=O = 0.745
• CCCn1cc(S(=O)(=O)CC(=O)Nc2ccc(OC)cc2OC)c2ccccc21 = 6.44

Can you give me growth inhibition for all of these, one by one?
1. CCCn1c(C(C)NC(=O)c2ccccc2)nc2ccccc21 (centres undefined)
2. COc1ccc(Nc2oc(COc3ccccc3F)nc2C#N)cc1
3. CC1=C(C(=O)OC2CCCCCCC2)C(c2ccc(O)cc2)NC(=O)N1 (centres undefined)
4. Cc1cc(C(=O)N2CCN(C(c3ccccc3)c3ccccc3)CC2)on1
5. COc1ccccc1N1CCN(CC(O)COc2ccc3c(C)cc(=O)oc3c2)CC1 (centres undefined)
6. O=C(O)c1ccc(F)c(S(=O)(=O)Nc2ccccc2)c1
7. CCCSc1nc(N)c2c3c(sc2n1)CN(C)CC3

1: -6.87; 2: 11.6; 3: 4.04; 4: -5.41; 5: -9.43; 6: -2.19; 7: -3.27

###

Assay: growth suppression of PTEN-deleted HCT116, pilot screen, cell-based, HCT116 clonal line, CellTiter-Glo (AID 824);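 also: 0% = 20 µM Hyamine control and 100% = vehicle cell control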
Settings: 60 h, at 10 µM, active compounds read low
Inconclusive results are not listed. Activity calls are given as the source filed them.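 The calls were made as follows: active = viability at or below 27.92% in each of two runs, the all-compound median minus 4 SD; inconclusive = no clear call, values can overlap the other calls; inactive = the rest.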
endpoint name: viability

Can you give me viability for all of these, one by one?
1. Cc1onc(-c2ccccc2)c1C(=O)Nc1cccc(C#N)c1
2. CCOC(=O)c1ccc(Nc2cc(C)nc(-c3ccccc3O)n2)cc1
3. CC(C)CC(NS(=O)(=O)c1ccc2c(c1)oc(=O)n2C)C(=O)N1CC=C(c2ccccc2)CC1 (stereo not given)
4. CCC(Sc1nc(C)cc(=O)[nH]1)C(=O)Nc1ccc(Cl)cn1 (stereo not given)

1: 88.5% (inactive); 2: 75.8% (inactive); 3: 83.3% (inactive); 4: 96.7% (inactive)

Can you give me viability for all of these, one by one?
1. CCOC(=O)CN1CC23C=CC(O2)C(C(=O)Nc2ccc4c(c2)OCO4)C3C1=O (stereo not given)
2. CC(C)(C)c1ccc(-c2nnc3sc(-c4ccccn4)nn23)cc1

["103% (inactive)", "89.2% (inactive)"]

Can you give me viability for all of these, one by one?
1. COCCOC(=O)C1=C(C)NC2=C(C(=O)CC(C)(C)C2)C1c1ccc2c(c1)OCO2 (stereo not given)
2. COc1ccc(OC)c2sc(NC(=O)C3=COCCO3)nc12
3. O=C(CSc1nnc(Cc2cc(=O)[nH]c(=O)[nH]2)n1-c1ccccc1)N1CCCCC1
4. CCOC(=O)c1ccc(NC(=O)C23CCC(C)(C(=O)O2)C3(C)C)cc1 (stereo not given)

87.4% (inactive)
90.9% (inactive)
90.4% (inactive)
101% (inactive)

Attribution: PubChem BioAssay
